The values you see were collected from patent US20240072809A1.

Catalogue of pKd values
Target: ASGPR (Homo sapiens (Human), UniProt P07306)
Sequence (P07306 whole entry): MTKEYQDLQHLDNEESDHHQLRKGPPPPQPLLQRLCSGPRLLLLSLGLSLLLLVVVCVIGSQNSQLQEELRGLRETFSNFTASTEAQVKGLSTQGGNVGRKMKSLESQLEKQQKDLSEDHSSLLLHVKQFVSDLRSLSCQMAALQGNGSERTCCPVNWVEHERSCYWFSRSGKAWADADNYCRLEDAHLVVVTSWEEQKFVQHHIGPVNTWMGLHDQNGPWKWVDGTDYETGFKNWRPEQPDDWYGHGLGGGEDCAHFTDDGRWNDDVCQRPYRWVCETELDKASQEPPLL
Assay: Affinity to ASGPR measured by surface plasmon resonance (SPR)
Assay type: binding
Settings: ASGPR ligands, Table 4; class symbols; read-out: ASGPR_PR Binding KD
pKd: −log10 of the molar value.
recorded endpoint: pKd

molecule_smiles=COc1cc(C#N)nc(N[C@H]2[C@H]3OC[C@](CO)(O3)[C@H](O)[C@@H]2O)n1 recorded_endpoint=pKd observed_result="> 4.00"
molecule_smiles=OC[C@H]1OC[C@H](Nc2nc(C(F)(F)F)cs2)[C@@H](O)[C@H]1O recorded_endpoint=pKd observed_result="> 4.00"
molecule_smiles=COc1cc(Cl)nc(N[C@H]2[C@H]3OC[C@](CO)(O3)[C@H](O)[C@@H]2O)n1 recorded_endpoint=pKd observed_result="> 4.00"
molecule_smiles=OC[C@@]12CO[C@@H](O1)[C@H](Nc1nc(Cl)nn3cccc13)[C@@H](O)[C@H]2O recorded_endpoint=pKd observed_result="> 4.00"
molecule_smiles=OC[C@H]1OC[C@@H](N2CCOCC2)[C@@H](O)[C@H]1O recorded_endpoint=pKd observed_result="3.30 to 4.00"
molecule_smiles=COc1cc(N[C@H]2CO[C@H](CO)[C@H](O)[C@@H]2O)nc(C(F)(F)F)n1 recorded_endpoint=pKd observed_result="> 4.00"
molecule_smiles=OC[C@H]1OC[C@H](Nc2ccnc(Cl)n2)[C@@H](O)[C@H]1O recorded_endpoint=pKd observed_result="> 4.00"
molecule_smiles=NC[C@@H]1CO[C@H](CO)[C@H](O)[C@@H]1O recorded_endpoint=pKd observed_result="< 3.00"
molecule_smiles=CSc1ccnc(N[C@H]2CO[C@H](CO)[C@H](O)[C@@H]2O)n1 recorded_endpoint=pKd observed_result="> 4.00"
molecule_smiles=COc1cc(N[C@H]2CO[C@H](CO)[C@H](O)[C@@H]2O)nc(OC)n1 recorded_endpoint=pKd observed_result="> 4.00"
molecule_smiles=O=c1ccn([C@H]2CO[C@H](CO)[C@H](O)[C@@H]2O)cc1 recorded_endpoint=pKd observed_result="> 4.00"
molecule_smiles=O=C1CCCN1[C@@H]1CO[C@H](CO)[C@H](O)[C@@H]1O recorded_endpoint=pKd observed_result="> 4.00"
molecule_smiles=OC[C@H]1OC[C@H](Nc2nc(Br)ns2)[C@@H](O)[C@H]1O recorded_endpoint=pKd observed_result="> 4.00"
molecule_smiles=CO[C@@H]1O[C@H](CO)[C@H](O)[C@H](O)[C@@H]1N1CCOCC1 recorded_endpoint=pKd observed_result="< 3.00"
molecule_smiles=CO[C@H]1O[C@H](CO)[C@H](O)C[C@H]1Nc1nc(N2CCOCC2)ns1 recorded_endpoint=pKd observed_result="> 4.00"
molecule_smiles=COc1nc(Cl)nc(N[C@H]2CO[C@H](CO)[C@H](O)[C@@H]2O)n1 recorded_endpoint=pKd observed_result="> 4.00"
molecule_smiles=CO[C@H]1O[C@H](CO)[C@H](O)[C@H](O)[C@H]1Nc1nc(Cl)c(C#N)s1 recorded_endpoint=pKd observed_result="> 4.00"
molecule_smiles=OC[C@H]1OC[C@H](Nc2ncccn2)[C@@H](O)[C@H]1O recorded_endpoint=pKd observed_result="> 4.00"
molecule_smiles=CO[C@H]1O[C@H](CO)[C@H](O)[C@H](O)[C@H]1Nc1cccc(C(F)(F)F)n1 recorded_endpoint=pKd observed_result="> 4.00"
molecule_smiles=O=C1OCCN1[C@@H]1CO[C@H](CO)[C@H](O)[C@@H]1O recorded_endpoint=pKd observed_result="> 4.00"
molecule_smiles=CCOc1cc(Cl)nc(N[C@H]2CO[C@H](CO)[C@H](O)[C@@H]2O)n1 recorded_endpoint=pKd observed_result="> 4.00"
molecule_smiles=COc1nc(N[C@H]2CO[C@H](CO)[C@H](O)[C@@H]2O)nc(OC)n1 recorded_endpoint=pKd observed_result="> 4.00"
molecule_smiles=OC[C@H]1OC[C@H](Nc2cccc(C(F)(F)F)c2)[C@@H](O)[C@H]1O recorded_endpoint=pKd observed_result="> 4.00"
molecule_smiles=OC[C@H]1OC[C@H](Nc2nc(-c3cccnc3)ns2)[C@@H](O)[C@H]1O recorded_endpoint=pKd observed_result="> 4.00"
molecule_smiles=COc1cc(C#N)nc(N[C@H]2CO[C@H](CO)[C@H](O)[C@@H]2O)n1 recorded_endpoint=pKd observed_result="> 4.00"
molecule_smiles=OC[C@H]1OC[C@H](Nc2nc3ccccc3s2)[C@@H](O)[C@H]1O recorded_endpoint=pKd observed_result="> 4.00"
molecule_smiles=NC(=O)[C@@H]1CO[C@H](CO)[C@H](O)[C@@H]1O recorded_endpoint=pKd observed_result="> 4.00"
molecule_smiles=CN1CCN([C@@H]2CO[C@H](CO)[C@H](O)[C@@H]2O)C1=O recorded_endpoint=pKd observed_result="3.30 to 4.00"
molecule_smiles=O=C(N[C@@H]1CO[C@H](CO)[C@H](O)[C@@H]1O)c1ccccc1 recorded_endpoint=pKd observed_result="3.30 to 4.00"
molecule_smiles=COc1cc(N[C@H]2[C@H]3OC[C@](CO)(O3)[C@H](O)[C@@H]2O)nc(C#N)n1 recorded_endpoint=pKd observed_result="> 4.00"
molecule_smiles=CO[C@H]1O[C@H](CO)[C@H](O)[C@H](O)[C@H]1N recorded_endpoint=pKd observed_result="> 4.00"
molecule_smiles=COc1nc(Cl)cc(N[C@H]2CO[C@H](CO)[C@H](O)[C@@H]2O)n1 recorded_endpoint=pKd observed_result="> 4.00"
molecule_smiles=OC[C@H]1OC[C@H](Nc2nccc(C(F)F)n2)[C@@H](O)[C@H]1O recorded_endpoint=pKd observed_result="> 4.00"
molecule_smiles=OC[C@H]1OC[C@H](Nc2cncc(C(F)(F)F)n2)[C@@H](O)[C@H]1O recorded_endpoint=pKd observed_result="> 4.00"
